Form: system (Prostaglandin G/H synthase 1 (Homo sapiens, UniProt P23219)), quantity (pIC50), values below.
# pIC50 is unitless: minus log10 of the molar concentration; print number only

Observe how each entry below is paired with its result.
molecule=Cc1cccc(Nc2ccccc2C(=O)O)c1C assayed_target="Prostaglandin G/H synthase 1 (Homo sapiens, UniProt P23219)" reported_result=3.11
molecule=Cc1cc(C)c2c(CSc3nnc(CSc4nc5ccccc5o4)o3)cc(=O)oc2c1 assayed_target="Prostaglandin G/H synthase 1 (Homo sapiens, UniProt P23219)" reported_result=2.95
molecule=Cc1ccc2oc(=O)cc(CSc3nnc(CSc4nc5cc(Cl)ccc5o4)o3)c2c1 assayed_target="Prostaglandin G/H synthase 1 (Homo sapiens, UniProt P23219)" reported_result=3.36
molecule=O=c1cc(CSc2nnc(CSc3nc4cc(Cl)ccc4o3)o2)c2c(ccc3ccccc32)o1 assayed_target="Prostaglandin G/H synthase 1 (Homo sapiens, UniProt P23219)" reported_result=3.19

API: value(readout=pIC50, system=Prostaglandin G/H synthase 1 (Homo sapiens, UniProt P23219)) for record O=c1cc(CSc2nnc(CSc3nc4ccccc4o3)o2)c2ccc3ccccc3c2o1
3.04

* * *

Record: pIC50 reported on Prostaglandin G/H synthase 2 (Homo sapiens, UniProt P35354).
Sequence (P35354 whole entry): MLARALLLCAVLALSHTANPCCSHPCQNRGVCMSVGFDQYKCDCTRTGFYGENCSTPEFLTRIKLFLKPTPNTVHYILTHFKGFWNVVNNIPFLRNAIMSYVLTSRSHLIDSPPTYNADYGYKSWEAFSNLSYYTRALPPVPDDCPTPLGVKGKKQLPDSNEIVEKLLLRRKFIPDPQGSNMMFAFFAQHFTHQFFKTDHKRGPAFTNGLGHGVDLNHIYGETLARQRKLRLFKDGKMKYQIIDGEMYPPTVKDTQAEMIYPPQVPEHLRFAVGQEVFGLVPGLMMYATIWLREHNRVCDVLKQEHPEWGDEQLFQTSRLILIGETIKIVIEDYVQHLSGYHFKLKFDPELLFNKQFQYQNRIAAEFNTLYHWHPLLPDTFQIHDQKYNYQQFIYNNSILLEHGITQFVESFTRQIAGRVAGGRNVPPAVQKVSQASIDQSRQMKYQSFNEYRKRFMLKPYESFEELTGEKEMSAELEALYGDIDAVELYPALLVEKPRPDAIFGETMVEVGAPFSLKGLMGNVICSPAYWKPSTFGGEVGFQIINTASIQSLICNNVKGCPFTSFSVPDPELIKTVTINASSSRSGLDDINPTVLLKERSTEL
# pIC50 is unitless: minus log10 of the molar concentration; print number only

Lab request: please report pIC50 under test system Prostaglandin G/H synthase 2 (Homo sapiens, UniProt P35354) for O=c1cc(CSc2nnc(CSc3nc4ccccc4o3)o2)c2ccc3ccccc3c2o1
4.57

Notebook: pull reported pIC50 for Prostaglandin G/H synthase 2 (Homo sapiens, UniProt P35354), entry COc1ccc2oc(=O)cc(CSc3nnc(CSc4nc5ccccc5o4)o3)c2c1
4.14

State its pIC50 on Prostaglandin G/H synthase 2 (Homo sapiens, UniProt P35354): Cc1ccc2c(CSc3nnc(CSc4nc5ccccc5o4)o3)cc(=O)oc2c1
4.27

Prostaglandin G/H synthase 2 (Homo sapiens, UniProt P35354) / pIC50 / Cc1ccc2c(CSc3nnc(CSc4nc5cc(Cl)ccc5o4)o3)cc(=O)oc2c1 : value?
4.54

Lab request: please report pIC50 under test system Prostaglandin G/H synthase 2 (Homo sapiens, UniProt P35354) for O=c1cc(CSc2nnc(CSc3nc4cc(Cl)ccc4o3)o2)c2c(ccc3ccccc32)o1
4.46
